Listed here: items and their measured pIC50.
experimental.system: Serine/threonine-protein kinase Chk1 (Homo sapiens)
Sequence (O14757 whole entry): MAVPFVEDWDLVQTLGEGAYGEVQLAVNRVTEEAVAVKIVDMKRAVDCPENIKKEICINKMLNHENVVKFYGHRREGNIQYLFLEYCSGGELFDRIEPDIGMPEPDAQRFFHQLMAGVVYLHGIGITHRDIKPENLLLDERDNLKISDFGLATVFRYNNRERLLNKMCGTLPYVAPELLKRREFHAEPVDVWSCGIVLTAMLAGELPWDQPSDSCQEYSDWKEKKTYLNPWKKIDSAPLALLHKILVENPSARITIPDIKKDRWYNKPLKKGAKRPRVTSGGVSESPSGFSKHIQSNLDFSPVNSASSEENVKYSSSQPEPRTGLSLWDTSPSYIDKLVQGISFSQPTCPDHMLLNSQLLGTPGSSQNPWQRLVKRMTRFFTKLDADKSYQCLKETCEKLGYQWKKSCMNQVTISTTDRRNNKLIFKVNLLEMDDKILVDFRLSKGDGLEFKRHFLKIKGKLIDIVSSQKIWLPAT
Notebook: values listed as pIC50 are -log10 of the concentration (mol/L).

# lookup: pIC50 of COc1cc2c(cc1CCOCCCc1cccc(C)n1)Cc1c-2n[nH]c1-c1ccc(-c2ccc(O)cc2)cc1
7.21

Data request, read-out pIC50, for COc1cc2c(cc1OCC[C@@H]1CCCN1)Cc1c(-c3ccc(-c4ccc(O)cc4)cc3)n[nH]c1-2
8.70

Can you look up the measured pIC50 of COc1cc2c(cc1OC(=O)NCCN1CCCC1)-c1[nH]nc(-c3ccc(-c4ccc(O)cc4)cc3)c1C2 for me?
7.68

Entry COc1cc2c(cc1OC(=O)NCCN1CCOCC1)-c1[nH]nc(-c3ccc(-c4ccc(O)cc4)cc3)c1C2 : reported pIC50 = ?
7.13

Look up pIC50 for this molecule: COc1cc2c(cc1OCCc1ccccn1)Cc1c-2n[nH]c1-c1ccc(-c2ccc(O)cc2)cc1
7.52

Which measured pIC50 value corresponds to COc1cc2c(cc1OCCN1CCCC1)Cc1c(-c3ccc(-c4ccc(O)cc4)cc3)n[nH]c1-2 ?
9.10

I would be grateful if you could share the reported pIC50 for COc1cc2c(cc1OCC(C)CN(C)C)-c1n[nH]c(-c3ccc(-c4ccc(O)cc4)cc3)c1C2 (stereo not drawn) .
9.22

Given the entry COc1cc2c(cc1OCCCN1CCN(c3cccc(Cl)c3)CC1)-c1n[nH]c(-c3ccc(-c4ccc(O)cc4)cc3)c1C2 , report its measured pIC50.
8.00

---

experimental.system: Serine/threonine-protein kinase Chk1 (Homo sapiens, UniProt O14757)
# True = IC50 below 5 nM (exclusive); False = IC50 at/above 5 nM

Determine if COc1cc2c(cc1OC(=O)NCCN(C)C)-c1[nH]nc(-c3ccc(-c4ccc(O)cc4)cc3)c1C2 shows IC50 strictly lower than 5 nM.
False

---

Listing of entries alongside the reported IC50.
experimental.system: Serine/threonine-protein kinase Chk1 (Homo sapiens, UniProt O14757)
Sequence (O14757 whole entry): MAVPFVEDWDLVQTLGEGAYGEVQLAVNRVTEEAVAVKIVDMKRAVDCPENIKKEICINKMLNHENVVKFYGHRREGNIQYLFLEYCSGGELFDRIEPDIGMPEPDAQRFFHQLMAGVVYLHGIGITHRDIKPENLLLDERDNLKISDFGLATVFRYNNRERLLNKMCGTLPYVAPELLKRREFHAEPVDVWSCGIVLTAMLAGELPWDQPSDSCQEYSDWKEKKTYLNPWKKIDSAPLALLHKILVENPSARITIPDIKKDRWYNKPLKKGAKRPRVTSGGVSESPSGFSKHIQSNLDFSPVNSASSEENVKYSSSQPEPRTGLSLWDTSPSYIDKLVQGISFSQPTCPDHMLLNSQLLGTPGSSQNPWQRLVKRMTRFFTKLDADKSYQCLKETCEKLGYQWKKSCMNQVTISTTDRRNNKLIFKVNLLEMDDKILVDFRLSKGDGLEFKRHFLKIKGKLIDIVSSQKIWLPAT
Kindly answer with a numeric value in nM, unit omitted.

Answered cases to consult:
* COc1cc2c(cc1OCCN1CCOCC1)-c1n[nH]c(-c3ccc(-c4ccc(O)cc4)cc3)c1C2 | 5
* COc1cc2c(cc1O)Cc1c(-c3ccc(-c4ccc(O)cc4)cc3)n[nH]c1-2 | 1
* COc1cc2c(cc1OCCN(C)C)-c1[nH]nc(-c3ccc(-c4ccc(O)cc4)cc3)c1C2 | 0.8

Attention now turns to another entry.
Param readout = IC50; param system = Serine/threonine-protein kinase Chk1 (Homo sapiens, UniProt O14757); param query = COc1cc2c(cc1OCCN1CCOCC1)Cc1c(-c3ccc(-c4ccc(O)cc4)cc3)n[nH]c1-2 ; response: value
2
